Data provenance: patent US20130109682A1

Biological target: hERG (Homo sapiens, UniProt Q12809)
Construct: host or cells: crude membrane suspension
Sequence (Q12809 whole entry): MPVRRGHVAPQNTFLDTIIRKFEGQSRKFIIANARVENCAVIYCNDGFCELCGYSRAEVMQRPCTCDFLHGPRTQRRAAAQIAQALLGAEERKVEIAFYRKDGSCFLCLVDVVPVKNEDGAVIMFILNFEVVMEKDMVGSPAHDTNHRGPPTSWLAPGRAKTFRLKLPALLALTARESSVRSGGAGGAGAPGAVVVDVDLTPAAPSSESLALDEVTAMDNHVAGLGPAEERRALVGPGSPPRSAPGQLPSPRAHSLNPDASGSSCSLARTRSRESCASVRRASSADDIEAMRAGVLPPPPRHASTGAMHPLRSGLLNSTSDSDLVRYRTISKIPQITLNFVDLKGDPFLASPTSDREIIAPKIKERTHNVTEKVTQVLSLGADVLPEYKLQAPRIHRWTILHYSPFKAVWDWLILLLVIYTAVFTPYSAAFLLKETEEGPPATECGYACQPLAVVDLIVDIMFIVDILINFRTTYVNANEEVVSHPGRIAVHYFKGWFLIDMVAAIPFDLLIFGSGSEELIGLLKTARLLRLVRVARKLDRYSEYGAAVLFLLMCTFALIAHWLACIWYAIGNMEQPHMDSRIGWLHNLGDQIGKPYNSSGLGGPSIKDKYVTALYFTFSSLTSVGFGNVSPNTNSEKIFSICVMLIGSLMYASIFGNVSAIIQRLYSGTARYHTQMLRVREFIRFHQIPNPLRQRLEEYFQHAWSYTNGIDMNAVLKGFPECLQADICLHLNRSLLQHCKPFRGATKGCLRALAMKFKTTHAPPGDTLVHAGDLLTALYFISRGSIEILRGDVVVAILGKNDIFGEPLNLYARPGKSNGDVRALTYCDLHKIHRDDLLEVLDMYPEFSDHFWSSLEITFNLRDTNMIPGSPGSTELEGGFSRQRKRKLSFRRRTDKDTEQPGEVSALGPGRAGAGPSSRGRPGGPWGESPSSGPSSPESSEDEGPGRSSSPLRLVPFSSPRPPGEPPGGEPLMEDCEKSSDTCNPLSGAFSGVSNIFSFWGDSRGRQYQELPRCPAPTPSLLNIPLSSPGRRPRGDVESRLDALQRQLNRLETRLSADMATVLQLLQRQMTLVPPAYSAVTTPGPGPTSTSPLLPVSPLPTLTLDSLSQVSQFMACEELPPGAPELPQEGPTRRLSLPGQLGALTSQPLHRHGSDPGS
Experiment: hERG binding assay ([3H] dofetilide displacement)
Settings: hERG binding, dofetilide; read-out: HERGdof IC50
Protocol: Compounds of the invention were pipetted into each well of pre-wet 96-well Millipore GF/C filter plates (#MSFCN6B50): 119 μl assay buffer, 1 μl test compound in 100% DMSO (or 100% DMSO only for total binding), 40 μl [3H] dofetilide (12.5 nM, final concentration 2.5 nM; Novartis radioisotope laboratory, East Hanover, N.J., USA, specific activity 15-45 Ci/mmol); 40 μl crude membrane suspension (ca. 15 μg protein). The final concentration of DMSO during the incubation was 0.5%. […]
pIC50: −log10 of the molar value.
I would appreciate it if you labelled entries Satisfied when pIC50 is 5 or higher, otherwise Not satisfied.

>  <Smiles Str>
N[C@H]1C[C@@H](c2ccncc2NC(=O)c2csc(-c3c(F)cccc3F)n2)O[C@H]2CCC[C@H]21

>  <Assay System>
hERG (Homo sapiens, UniProt Q12809)

>  <Label>
Satisfied

$$$$

Exam item: decide whether the reported pIC50 for `COc1cc(F)c(-c2nc(C(=O)Nc3cnccc3[C@H]3C[C@@H](N)[C@](C)(O)[C@@H](C)O3)ccc2F)c(F)c1` is at least 5.
Satisfied

Request: `CC[C@]1(O)[C@H](N)C[C@H](c2ccncc2NC(=O)c2ccc(F)c(-c3c(F)cccc3F)n2)O[C@@H]1C`
Satisfied

Thanks! And `N[C@@H]1C[C@H](c2ccncc2NC(=O)c2ccc(F)c(-c3c(F)cccc3F)n2)O[C@@H]2CCC[C@H]12` ?
Satisfied

Here is the next compound: `Nc1cc(F)c(-c2c(F)cccc2F)nc1C(=O)Nc1cnccc1[C@H]1C[C@@H](N)[C@@]2(O)CCCC[C@H]2O1`
Satisfied

`C[C@H]1O[C@@H](c2ccncc2NC(=O)c2ccc(F)c(-c3c(F)cccc3F)n2)C[C@@H](N)[C@]1(C)O` ?
Not satisfied

----------
target: PIM3 (Homo sapiens, UniProt Q86V86); experiment: KinaseGlo Pim3 ATP depletion assay; format: biochemical
# pIC50 annotations
Just the number, please; pIC50 means minus log10 of the concentration in mol/L.

Below, 2 molecules whose answers are already recorded.
>  <Molecule>
CC[C@H]1O[C@@H](c2ccncc2NC(=O)c2nc(-c3c(F)cccc3F)sc2N)C[C@@H](O)[C@@H]1O [Example 40]

>  <Assay System>
PIM3 (Homo sapiens, UniProt Q86V86)

>  <Quantitative Result>
8.70

$$$$
>  <Molecule>
O=C(Nc1cnccc1[C@H]1C[C@@H](O)[C@@]2(O)CCC[C@H]2O1)c1cccn(-c2ccccc2)c1=O [Example 194]

>  <Assay System>
PIM3 (Homo sapiens, UniProt Q86V86)

>  <Quantitative Result>
5.55

$$$$

Shifting focus to the molecule that follows.
# pIC50 lookup, item O=C(Nc1cnccc1[C@H]1C[C@@H](O)CCO1)c1csc(-c2c(F)cccc2F)n1 [Example 131]
7.66

----------
Biological target: FLT3D835Y kinase (Homo sapiens, UniProt P36888, D835Y)
Sequence (P36888 27-993 D835Y): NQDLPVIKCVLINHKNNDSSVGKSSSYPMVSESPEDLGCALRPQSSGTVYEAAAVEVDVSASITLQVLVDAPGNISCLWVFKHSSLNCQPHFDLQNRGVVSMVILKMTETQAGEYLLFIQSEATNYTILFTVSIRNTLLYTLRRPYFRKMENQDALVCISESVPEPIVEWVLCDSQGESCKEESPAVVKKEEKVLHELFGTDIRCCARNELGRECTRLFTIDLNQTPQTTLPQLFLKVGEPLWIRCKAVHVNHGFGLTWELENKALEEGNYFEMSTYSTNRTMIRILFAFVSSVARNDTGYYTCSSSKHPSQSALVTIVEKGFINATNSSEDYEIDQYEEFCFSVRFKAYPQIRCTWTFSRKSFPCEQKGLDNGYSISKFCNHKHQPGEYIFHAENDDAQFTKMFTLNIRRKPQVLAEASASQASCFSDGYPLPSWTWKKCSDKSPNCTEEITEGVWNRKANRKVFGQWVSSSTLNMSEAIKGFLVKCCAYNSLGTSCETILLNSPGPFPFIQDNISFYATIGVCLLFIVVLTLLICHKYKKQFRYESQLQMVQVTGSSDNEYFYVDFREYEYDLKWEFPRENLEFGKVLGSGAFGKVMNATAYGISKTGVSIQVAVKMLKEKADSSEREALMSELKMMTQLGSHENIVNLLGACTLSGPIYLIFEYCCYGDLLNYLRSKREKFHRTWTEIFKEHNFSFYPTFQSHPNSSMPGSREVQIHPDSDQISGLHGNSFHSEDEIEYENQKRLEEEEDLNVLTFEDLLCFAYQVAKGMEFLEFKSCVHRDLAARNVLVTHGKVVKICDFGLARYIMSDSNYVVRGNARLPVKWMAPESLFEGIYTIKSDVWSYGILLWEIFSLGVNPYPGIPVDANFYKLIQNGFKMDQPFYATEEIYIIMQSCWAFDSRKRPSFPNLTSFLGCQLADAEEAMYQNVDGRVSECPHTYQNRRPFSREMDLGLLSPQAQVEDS
Assay: FLT3D835Y kinase inhibition assay (LanthaScreen TR-FRET)
Conditions: read-out: FLT3 IC50
Procedure: FLT3D835Y Kinase Inhibition Assay LanthaScreen™ is the detection of Time-Resolved Fluorescence Resonance Energy Transfer (TR-FRET) using lanthanide chelates to measure interactions between various binding partners. […] After an incubation time of 45 min in the dark, the plates were transferred into the Pherastar fluorescence reader for counting. The effect of compound on the enzymatic activity was obtained from the linear progress curves and determined from one reading (end point measurement).
Measured pIC50, listed per entry for reference.
Remember the convention: pIC50 equals -log10 of concentration in molar.

Which pIC50 is reported for this molecule? CC(C)[C@@H]1C[C@H](N)C[C@H](c2ccncc2NC(=O)c2nc(-c3ccccc3)cnc2N)O1 [Example 291]
8.28

Also CC[C@]1(O)[C@H](N)C[C@H](c2ccncc2NC(=O)c2nc(-c3ccccc3)cnc2N)O[C@@H]1C [Example 187] , if possible.
8.77

Next entry: CC[C@]1(O)[C@H](C)O[C@H](c2ccncc2NC(=O)c2nc(-c3ccccc3)cnc2N)C[C@@H]1N [Example 189]
6.77

Again, but for CC[C@]1(O)[C@H](N)C[C@H](c2ccncc2NC(=O)c2ccc(F)c(-c3c(F)cccc3F)n2)O[C@@H]1C [Example 232]
6.08

Please answer likewise for CC[C@@H]1O[C@H](c2ccncc2NC(=O)c2nc(-c3ccccc3)cnc2N)C[C@H](N)[C@@]1(C)O [Example 345]
6.04

Okay, and COc1cc(F)c(-c2nc(C(=O)Nc3cnccc3[C@H]3C[C@@H](N)[C@](C)(O)[C@@H](C)O3)ccc2F)c(F)c1 [Example 242] ?
5.92
